- Test system: Cyclooxygenase
- assay_notes: ARBC whole cell cyclooxygenase assay (PGF2α formation in RBL-1 cells)
- Format: cell-based, rat
- conditions: A23187 (5 μM) stimulated, PGF2α formation by RIA
% Inhibition at 10 μM Conc, ARBC: recorded values
# number only, unit % dropped from output

Completed entries (count: 4):
CC(C)(C)c1nc(C=C2SC(=O)NC2=O)nc(C(C)(C)C)c1O 68
CC(C)(C)c1nc(C=C2SC(=S)NC2=O)nc(C(C)(C)C)c1O 81
CC(C)(C)c1nc(C=C2CCOC2=O)nc(C(C)(C)C)c1O 93
CC(C)(C)c1nc(C=C2SC(=N)NC2=O)nc(C(C)(C)C)c1O 56

Here's the next entry for you.
Data request: Please state recorded % Inhibition at 10 μM Conc, ARBC (tested on Cyclooxygenase) of `CON1CCC(=Cc2nc(C(C)(C)C)c(O)c(C(C)(C)C)n2)C1=O`
Data returned: 88

* * *

- assayed_target: 5-Lipoxygenase (Rattus norvegicus, UniProt P12527)
- Construct: host or cells: RBL-1 (rat basophilic leukemia)
- Sequence (P12527 1-673): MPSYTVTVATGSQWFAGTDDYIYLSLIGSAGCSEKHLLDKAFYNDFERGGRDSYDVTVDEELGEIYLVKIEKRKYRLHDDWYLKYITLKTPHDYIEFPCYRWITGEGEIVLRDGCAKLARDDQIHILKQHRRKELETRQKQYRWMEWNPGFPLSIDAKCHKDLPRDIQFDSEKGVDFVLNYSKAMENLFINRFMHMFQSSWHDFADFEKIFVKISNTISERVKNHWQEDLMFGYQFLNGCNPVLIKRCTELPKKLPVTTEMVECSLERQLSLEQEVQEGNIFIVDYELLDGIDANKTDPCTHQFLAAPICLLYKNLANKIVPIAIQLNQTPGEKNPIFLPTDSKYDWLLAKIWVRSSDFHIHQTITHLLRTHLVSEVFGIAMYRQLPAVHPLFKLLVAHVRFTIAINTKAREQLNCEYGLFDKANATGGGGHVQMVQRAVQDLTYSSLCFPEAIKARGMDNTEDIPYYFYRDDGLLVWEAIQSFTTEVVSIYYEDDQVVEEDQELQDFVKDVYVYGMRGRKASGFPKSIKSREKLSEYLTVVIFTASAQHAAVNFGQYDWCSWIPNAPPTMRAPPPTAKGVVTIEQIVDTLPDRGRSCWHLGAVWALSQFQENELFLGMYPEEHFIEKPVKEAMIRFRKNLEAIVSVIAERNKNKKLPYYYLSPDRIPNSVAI
- assay_notes: ARBL whole cell 5-lipoxygenase assay (LTB4 formation in RBL-1 cells)
- Type: cell-based
- conditions: A23187 (5 μM) stimulated, LTB4 formation by RIA, read-out: % Inhibition at 10 μM Conc, ARBL
quantity: inhibition at 10 µM (%)
# number only, unit % dropped from output

Completed entries (count: 4):
molecule	quantity	observed_result
CC(C)(C)c1nc(C=C2SC(=O)NC2=O)nc(C(C)(C)C)c1O [Example 8]	inhibition at 10 µM	60
CC(C)(C)c1nc(C=C2SC(=N)NC2=O)nc(C(C)(C)C)c1O [Example 7]	inhibition at 10 µM	32
CC(C)(C)c1nc(C=C2CCOC2=O)nc(C(C)(C)C)c1O [Example 16]	inhibition at 10 µM	100
CC(C)(C)c1nc(C=C2SC(=S)NC2=O)nc(C(C)(C)C)c1O [Example 6]	inhibition at 10 µM	91

Here's the next entry for you.
Data request: Given CON1CCC(=Cc2nc(C(C)(C)C)c(O)c(C(C)(C)C)n2)C1=O [Example 15] , state its recorded inhibition at 10 µM.
Data returned: 46
